TARGET OR SYSTEM: his-labeled human IL-13 (immunogen A) (human) (UniProt P35225)
EXPERIMENT: FACS blocking, biotin-IL-13 on IL-13Ra1/IL-4Ra HEK293 cells; antibody at 0.01 nM

BINDER	mean fluorescence intensity
29D9H8 (lead antibody, mouse hybridoma) (antibody, V domains shown, Mouse monoclonal antibody purified from hybridoma supernatant on Protein G) VH: QVQLQQSGAELVRPGASVTLSCKASGYTFTDYEMHWVKQTPVHGLEWIGGIDPETGGTASNQKFKGKAILTADKSSSTAYMELRSLTSEDSAVYYCTSGDYFGGGPFAYWGQGTLVTVSA VL: DIKMTQSPSSMYASLGERVTITCKASQDINSYLSWFQQKPGKSPKTLIYRANRLVDGVPSRFSGSGSGQDYSLTISSLDYEDMGIYYCLQYDEFPYTFGGGTKLEIK	74.2
70F10A10 (lead antibody, mouse hybridoma) (antibody, V domains shown) VH: QIQLQQSGAELARPGASVKLSCKASGYTFTSYGISWVKQRDGQGLEWIGEIYPRSGNTDYNEKFKGKATLTADKSSSTAYMELRSLTSEDSAVYFCSSFTTLVPTDYFDYWGQGTTLTVSS VL: DIMMSQSPSSLAVSVGEKVSMTCKSSQSLLYSSNQKNYLAWYQQKPGQSPKMLIYWASTRETGVPDRFTGSGSGTDFTLTISSVMAEDLAVYYCHQYFTYPRTFGDGTKLEVK	73.5
c35E2C3 (mouse-human chimeric IL-13 antibody) (antibody, V domains shown) VH: EVQLQESGPGLAKPSQTLSLTCSVTGYSITSDYWNWIRKFPGNKLEYMGYISYNGNTYYNPSLKSQISITRDTSKNQLYLQLKSATTEDTATYYCARLAKWTWYFDIWGTGTTVTVSS VL: DIQMNQSPSSLSASLGDTITITCHASQNINVWLSWYQQKPGSLPKLLIYKASDLHTGVPSRFSGSGSGTGFTLTISSLQPEDIATYYCQQGQSYPYTFGGGTKLEIK	96.8
c28A2E11 (mouse-human chimeric IL-13 antibody) (antibody, V domains shown) VH: EVQLQQSGAELVKPGASVKLSCTASGFNIKDYYMHWVKQRTEQGLEWIGRIDPEDGETKYAPKFHDKATLTADTSSNTAYLQFSSLASEDTAVYYCTRYDYYGPFAYWGQGTLVTVSA VL: QAVVTQESVLTTSPGETVTLTCRSSTGAVTTSNYANWVQEKPDHLFTGLIGGTNNRAPGVPARFSGSLIGDKAALTITGAQTEDEAIYFCALWYINHFIFGSGTKVTVL	102
c29D9H8 (mouse-human chimeric IL-13 antibody) (antibody, V domains shown) VH: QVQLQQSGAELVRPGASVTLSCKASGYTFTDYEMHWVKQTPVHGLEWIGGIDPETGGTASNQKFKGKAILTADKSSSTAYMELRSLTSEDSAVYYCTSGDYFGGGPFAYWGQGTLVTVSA VL: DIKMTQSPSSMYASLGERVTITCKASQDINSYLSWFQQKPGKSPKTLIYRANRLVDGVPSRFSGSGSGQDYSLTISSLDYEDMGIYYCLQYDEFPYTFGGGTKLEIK	101
28A2E11 (lead antibody, mouse hybridoma) (antibody, V domains shown, Mouse monoclonal antibody purified from hybridoma supernatant on Protein G) VH: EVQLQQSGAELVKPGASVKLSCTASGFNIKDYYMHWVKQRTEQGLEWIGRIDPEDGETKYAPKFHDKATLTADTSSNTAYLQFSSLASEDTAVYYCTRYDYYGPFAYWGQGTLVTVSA VL: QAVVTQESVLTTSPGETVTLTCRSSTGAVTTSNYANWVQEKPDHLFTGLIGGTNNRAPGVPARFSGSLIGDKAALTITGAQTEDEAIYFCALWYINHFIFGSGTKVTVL	76.2
c70F10A10 (mouse-human chimeric IL-13 antibody) (antibody, V domains shown) VH: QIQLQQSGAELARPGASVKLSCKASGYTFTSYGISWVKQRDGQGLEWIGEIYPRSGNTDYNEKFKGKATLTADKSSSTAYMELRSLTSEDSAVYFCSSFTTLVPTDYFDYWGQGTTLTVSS VL: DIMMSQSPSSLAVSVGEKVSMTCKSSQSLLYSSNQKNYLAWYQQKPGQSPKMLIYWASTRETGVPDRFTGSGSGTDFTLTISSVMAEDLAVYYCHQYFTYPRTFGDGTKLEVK	98.3
